Test system: tobacco budworm (Heliothis virescens [Fabricius])
Experiment summary: surface-treated diet test against tobacco budworm
Format: in vivo
Condition description: 0.25 millimoles of candidate insecticide on the surface of the diet; second instar larvae; five-day exposure; inhibition of insect weight relative to untreated controls
Readout: Percent Growth Inhibition (%)
All answers are understood in %, so give the number only.

// known answers, use as guide
{"Compound": "CCn1nnc(-c2ccc(CN3CCC(C(=NNc4ccc(OC(F)(F)F)cc4)c4ccc(C(F)(F)F)cc4)CC3)cc2)n1 [Compound 119]", "Percent Growth Inhibition [%]": 100}
{"Compound": "CCn1nnc(-c2ccc(CN3CCC(C(=NNc4ccccn4)c4ccc(OC(F)(F)F)cc4)CC3)cc2)n1 [Compound 92]", "Percent Growth Inhibition [%]": 45}
{"Compound": "CC(C)OC(=O)Nc1ccc(C[N+]2([O-])CCN(C(c3ccc(C(F)(F)F)cc3)c3ccc(C(F)(F)F)cc3)CC2)cc1 [Compound 174]", "Percent Growth Inhibition [%]": 100}
{"Compound": "CCn1nnc(-c2ccc(CN3CCC(C(=NNc4ccc([N+](=O)[O-])cc4)c4ccc(OC(F)(F)F)cc4)CC3)cc2)n1 [Compound 126]", "Percent Growth Inhibition [%]": 100}
{"Compound": "Cn1nnc(-c2ccc(CN3CCC(C(=O)c4ccc(OC(F)(F)F)cc4)CC3)cc2)n1 [Compound 67]", "Percent Growth Inhibition [%]": 95}
{"Compound": "Cn1nnc(-c2ccc(CN3CCC(C(=NNC(=O)c4ccc(Cl)cc4)c4ccc(OC(F)(F)F)cc4)CC3)cc2)n1 [Compound 139]", "Percent Growth Inhibition [%]": 100}

Below: the item to evaluate.
Consider the compound shown here: Cn1nnc(-c2ccc(CN3CCC(C(=NNc4ccc(OC(F)(F)F)cc4)c4ccc(OC(F)(F)F)cc4)CC3)cc2)n1 [Compound 123] What is its recorded Percent Growth Inhibition?
100
